- Test system: 292921-168-R-J2-PDC KRAS tumor spheroid viability
- TEST: Anticancer human tumor 292921-168-R-J2-PDC patient-derived pancreatic carcinoma cell line growth inhibition [KRAS2]
- TEST PARAMETERS: second compound 10 µM; first compound 0.1 µM; stronger effect = lower value; spheroids with HUVEC and MSC
Quick list: viability, T/C per entry.
Number only, in %; omit the unit.

What measured viability, T/C is associated with COc1cc2nccc(Oc3ccc(NC(=O)C4(C(=O)Nc5ccc(F)cc5)CC4)cc3)c2cc1OC + C=CC(=O)N1CCN(c2nc(=O)n(-c3c(C)ccnc3C(C)C)c3nc(-c4c(O)cccc4F)c(F)cc23)C(C)C1 on 292921-168-R-J2-PDC KRAS tumor spheroid viability? 25.4

# iterate: COC(=O)c1ccc2c(C(=Nc3ccc(N(C)C(=O)CN4CCN(C)CC4)cc3)c3ccccc3)c(O)[nH]c2c1 + C=CC(=O)N1CCN(c2nc(=O)n(-c3c(C)ccnc3C(C)C)c3nc(-c4c(O)cccc4F)c(F)cc23)C(C)C1 36.4

What do you get for Cn1nccc1Nc1nccc(-c2cc3c(s2)C(C)(C)N(CCN2CCOCC2)C3=O)n1 + C=CC(=O)N1CCN(c2nc(=O)n(-c3c(C)ccnc3C(C)C)c3nc(-c4c(O)cccc4F)c(F)cc23)C(C)C1 ? 18

And CC1(C)CCC(CN2CCN(c3ccc(C(=O)NS(=O)(=O)c4ccc(NCC5CCOCC5)c([N+](=O)[O-])c4)c(Oc4cnc5[nH]ccc5c4)c3)CC2)=C(c2ccc(Cl)cc2)C1 + COc1cc2nc(C)nc(NC(C)c3cc(N)cc(C(F)(F)F)c3)c2cc1OC1CCOC1 ? 31

Could you now consider this next compound?
API: value(readout=viability, T/C, system=292921-168-R-J2-PDC KRAS tumor spheroid viability) for record COc1cc2nccc(Oc3ccc(NC(=O)C4(C(=O)Nc5ccc(F)cc5)CC4)cc3)c2cc1OC + COc1cc2nc(C)nc(NC(C)c3cc(N)cc(C(F)(F)F)c3)c2cc1OC1CCOC1 31.1

----------
Listed next: entries and their corresponding viability, T/C.
- System: 292921-168-R-J2-PDC KRAS tumor spheroid viability
- TEST: Anticancer human tumor 292921-168-R-J2-PDC cell line growth inhibition [KRAS2];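 also: drug exposure lasted seven days after spheroids formed for three days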;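 as to viability, T/C: percent of DMSO vehicle control viability which is 100%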
- TEST PARAMETERS: second compound 10 µM; first compound 1 µM; stronger effect = lower value; spheroids with HUVEC and MSC

Recorded results for 5 molecules are shown here.
Which viability, T/C is listed for COc1cc(Nc2ncc3c(n2)-c2ccc(Cl)cc2C(c2c(F)cccc2OC)=NC3)ccc1C(=O)O + CNCc1ccccc1-c1csc(C(C)Nc2nc(C)nc3cc(OC)c(OC)cc23)c1 ? 0.1%

And the next one, COc1cc2nccc(Oc3ccc(NC(=O)C4(C(=O)Nc5ccc(F)cc5)CC4)cc3)c2cc1OC + COc1cc2nc(C)nc(NC(C)c3cc(N)cc(C(F)(F)F)c3)c2cc1OC1CCOC1 ? 31.9%

Now this one: CC(C)NCC(C(=O)N1CCN(c2ncnc3c2C(C)CC3O)CC1)c1ccc(Cl)cc1 (stereo unspecified) + CC1OCC2(CCN(c3cnc(Sc4ccnc(N)c4Cl)c(N)n3)CC2)C1N 33.8%

Repeat with CC1COCCN1c1cc(-c2ccnn2C)c2ccnc(-c3ccn[nH]3)c2n1 (stereo unspecified) + C=CC(=O)N1CCN(c2nc(=O)n(-c3c(C)ccnc3C(C)C)c3nc(-c4c(O)cccc4F)c(F)cc23)C(C)C1 21.3%

CC1OCC2(CCN(c3cnc(Sc4ccnc(N)c4Cl)c(N)n3)CC2)C1N (stereo unspecified) + CNCc1ccccc1-c1csc(C(C)Nc2nc(C)nc3cc(OC)c(OC)cc23)c1 ? 0.09%

Next:
Entry CC(=O)OC12COC1CC(O)C1(C)C(=O)C(O)C3=C(C)C(OC(=O)C(O)C(NC(=O)OC(C)(C)C)c4ccccc4)CC(O)(C(OC(=O)c4ccccc4)C21)C3(C)C (stereo unspecified) + COc1cc2nc(C)nc(NC(C)c3cc(N)cc(C(F)(F)F)c3)c2cc1OC1CCOC1 has what viability, T/C? 11.9%

And the next one, CC1COCCN1c1cc(-c2ccnn2C)c2ccnc(-c3ccn[nH]3)c2n1 (stereo unspecified) + CNCc1ccccc1-c1csc(C(C)Nc2nc(C)nc3cc(OC)c(OC)cc23)c1 ? 0.09%

Now the same for CC(C)NCC(C(=O)N1CCN(c2ncnc3c2C(C)CC3O)CC1)c1ccc(Cl)cc1 (stereo unspecified) + CNCc1ccccc1-c1csc(C(C)Nc2nc(C)nc3cc(OC)c(OC)cc23)c1 0.36%

----------
- System: 292921-168-R-J2-PDC KRAS tumor spheroid viability
- TEST: Anticancer human tumor 292921-168-R-J2-PDC cell line growth inhibition [KRAS2];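 also: drug exposure lasted seven days after spheroids formed for three days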;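 as to viability, T/C: percent of DMSO vehicle control viability which is 100%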
- TEST PARAMETERS: second compound 0.1 µM; first compound 0.316 µM; stronger effect = lower value; spheroids with HUVEC and MSC
MEASURED METRIC: viability, T/C (%)
Supply the numeric figure in %, leaving out any unit text.

Observe how each entry below is paired with its result.
Report viability, T/C for COC(=O)c1ccc2c(C(=Nc3ccc(N(C)C(=O)CN4CCN(C)CC4)cc3)c3ccccc3)c(O)[nH]c2c1 + COc1cc2nc(C)nc(NC(C)c3cc(N)cc(C(F)(F)F)c3)c2cc1OC1CCOC1 please. 83

Continue with CC1COCCN1c1cc(-c2ccnn2C)c2ccnc(-c3ccn[nH]3)c2n1 (stereo unspecified) + CC1OCC2(CCN(c3cnc(Sc4ccnc(N)c4Cl)c(N)n3)CC2)C1N 15

Lookup Cn1nccc1Nc1nccc(-c2cc3c(s2)C(C)(C)N(CCN2CCOCC2)C3=O)n1 + COc1cc2nc(C)nc(NC(C)c3cc(N)cc(C(F)(F)F)c3)c2cc1OC1CCOC1 14.8

Consider next the compound COc1cc(Nc2ncc3c(n2)-c2ccc(Cl)cc2C(c2c(F)cccc2OC)=NC3)ccc1C(=O)O + COc1cc2nc(C)nc(NC(C)c3cc(N)cc(C(F)(F)F)c3)c2cc1OC1CCOC1 in the same way. 27.9

Thanks! And CC1OCC2(CCN(c3cnc(Sc4ccnc(N)c4Cl)c(N)n3)CC2)C1N (stereo unspecified) + CNCc1ccccc1-c1csc(C(C)Nc2nc(C)nc3cc(OC)c(OC)cc23)c1 ? 50

Same thing, different compound: CCNC(=O)CC1N=C(c2ccc(Cl)cc2)c2cc(OC)ccc2-n2c(C)nnc21 (stereo unspecified) + C=CC(=O)N1CCN(c2nc(OCC3CCCN3C)nc3c2CCN(c2cccc4cccc(C)c24)C3)CC1CC#N 59.1

---
Find the recorded viability, T/C belonging to COc1cc(Nc2ncc3c(n2)-c2ccc(Cl)cc2C(c2c(F)cccc2OC)=NC3)ccc1C(=O)O + CNCc1ccccc1-c1csc(C(C)Nc2nc(C)nc3cc(OC)c(OC)cc23)c1 and report it. 28.1

// query: Cn1nccc1Nc1nccc(-c2cc3c(s2)C(C)(C)N(CCN2CCOCC2)C3=O)n1 + C=CC(=O)N1CCN(c2nc(=O)n(-c3c(C)ccnc3C(C)C)c3nc(-c4c(O)cccc4F)c(F)cc23)C(C)C1 23.7

Try this compound too: COc1cc(Nc2ncc3c(n2)-c2ccc(Cl)cc2C(c2c(F)cccc2OC)=NC3)ccc1C(=O)O + C=CC(=O)N1CCN(c2nc(=O)n(-c3c(C)ccnc3C(C)C)c3nc(-c4c(O)cccc4F)c(F)cc23)C(C)C1 41.3

How about CCNC(=O)CC1N=C(c2ccc(Cl)cc2)c2cc(OC)ccc2-n2c(C)nnc21 (stereo unspecified) + C=CC(=O)N1CCN(c2nc(=O)n(-c3c(C)ccnc3C(C)C)c3nc(-c4c(O)cccc4F)c(F)cc23)C(C)C1 ? 77.2

Query CC1COCCN1c1cc(-c2ccnn2C)c2ccnc(-c3ccn[nH]3)c2n1 (stereo unspecified) + CNCc1ccccc1-c1csc(C(C)Nc2nc(C)nc3cc(OC)c(OC)cc23)c1 next 13.1

----------
- Test system: 292921-168-R-J2-PDC KRAS tumor spheroid viability
- TEST: Anticancer human tumor 292921-168-R-J2-PDC cell line growth inhibition [KRAS2];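 also: drug exposure lasted seven days after spheroids formed for three days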
- TEST PARAMETERS: curve of first compound; second compound 1 µM; spheroids with HUVEC and MSC
pIC50: −log10 of the molar value.
Everything with pIC50 lower than 6 is No; everything else, including exactly 6, is Yes.

Dear colleague, could you confirm whether CC1COCCN1c1cc(-c2ccnn2C)c2ccnc(-c3ccn[nH]3)c2n1 (stereo not given) + C=CC(=O)N1CCN(c2nc(=O)n(-c3c(C)ccnc3C(C)C)c3nc(-c4c(O)cccc4F)c(F)cc23)C(C)C1 has pIC50 at or above 6? Yes

Moving on to Cn1nccc1Nc1nccc(-c2cc3c(s2)C(C)(C)N(CCN2CCOCC2)C3=O)n1 + COc1cc2nc(C)nc(NC(C)c3cc(N)cc(C(F)(F)F)c3)c2cc1OC1CCOC1 Yes

Try CC1(C)CCC(CN2CCN(c3ccc(C(=O)NS(=O)(=O)c4ccc(NCC5CCOCC5)c([N+](=O)[O-])c4)c(Oc4cnc5[nH]ccc5c4)c3)CC2)=C(c2ccc(Cl)cc2)C1 + CC1OCC2(CCN(c3cnc(Sc4ccnc(N)c4Cl)c(N)n3)CC2)C1N next. Yes

Item: Cn1nccc1Nc1nccc(-c2cc3c(s2)C(C)(C)N(CCN2CCOCC2)C3=O)n1 + CC1OCC2(CCN(c3cnc(Sc4ccnc(N)c4Cl)c(N)n3)CC2)C1N Yes

Same read-out for CC(=O)OC12COC1CC(O)C1(C)C(=O)C(O)C3=C(C)C(OC(=O)C(O)C(NC(=O)OC(C)(C)C)c4ccccc4)CC(O)(C(OC(=O)c4ccccc4)C21)C3(C)C (stereo not given) + COc1cc2nc(C)nc(NC(C)c3cc(N)cc(C(F)(F)F)c3)c2cc1OC1CCOC1 ? Yes

Continuing:
Dear colleague, could you confirm whether COc1cc2nccc(Oc3ccc(NC(=O)C4(C(=O)Nc5ccc(F)cc5)CC4)cc3)c2cc1OC + COc1cc2nc(C)nc(NC(C)c3cc(N)cc(C(F)(F)F)c3)c2cc1OC1CCOC1 has pIC50 at or above 6? No

Param item: CC1OCC2(CCN(c3cnc(Sc4ccnc(N)c4Cl)c(N)n3)CC2)C1N (stereo not given) + C=CC(=O)N1CCN(c2nc(=O)n(-c3c(C)ccnc3C(C)C)c3nc(-c4c(O)cccc4F)c(F)cc23)C(C)C1 No
